# assayedSystem: T1, cyno CD137 on DO11.10-cCD137 cells (cynomolgus, UniProt Q07011 24-255 (human entry))
# T1 chain: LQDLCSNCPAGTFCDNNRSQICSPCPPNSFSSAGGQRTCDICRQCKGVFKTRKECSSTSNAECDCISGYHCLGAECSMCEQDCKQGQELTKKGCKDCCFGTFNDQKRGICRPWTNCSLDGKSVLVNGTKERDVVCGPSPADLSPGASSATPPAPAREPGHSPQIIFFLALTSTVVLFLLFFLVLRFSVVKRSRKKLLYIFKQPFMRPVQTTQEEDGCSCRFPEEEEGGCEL
# assaySummary: cell-based or functional assay
Entries and their measured Emax (mIL-2 pg/ml), DO11.10-cCD137 T cell assay, crosslinked follow.
measuredParameter: Emax (mIL-2 pg/ml), DO11.10-cCD137 T cell assay, crosslinked (pg/mL)

binder | unitsLabel | result
FS20-22-49AA/FS30-10-16 (bispecific antibody, human IgG1, kappa, L234A L235A, V domains shown, M97 (Kabat) to L against FS30-10; also called FS30-10-16 in mAb^2 format) VH: EVQLLESGGGLVQPGGSLRLSCAASGFTFSSYDMSWVRQAPGKGLEWVSDIDPTGSKTDYADSVKGRFTISRDNSKNTLYLQMNSLRAEDTAVYYCARDLLVYGFDYWGQGTLVTVSS VL: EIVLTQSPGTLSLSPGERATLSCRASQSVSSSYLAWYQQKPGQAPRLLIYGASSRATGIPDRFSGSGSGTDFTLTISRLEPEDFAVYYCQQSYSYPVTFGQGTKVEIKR | pg/mL | 50100
FS20-22-49AA/FS30-10-3 (bispecific antibody, human IgG1, kappa, L234A L235A, V domains shown, M97 (Kabat) to N against FS30-10; also called FS30-10-3 in mAb^2 format) VH: EVQLLESGGGLVQPGGSLRLSCAASGFTFSSYDMSWVRQAPGKGLEWVSDIDPTGSKTDYADSVKGRFTISRDNSKNTLYLQMNSLRAEDTAVYYCARDLNVYGFDYWGQGTLVTVSS VL: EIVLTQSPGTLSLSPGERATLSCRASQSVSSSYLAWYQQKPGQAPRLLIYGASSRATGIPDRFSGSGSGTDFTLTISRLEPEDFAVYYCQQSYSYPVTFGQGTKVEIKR | pg/mL | 49400
FS20-22-49AA/FS30-5-37 (bispecific antibody, human IgG1, kappa, L234A L235A, V domains shown, M100D to I and M100H to L against FS30-5; also called FS30-5-37 in mAb^2 format) VH: EVQLLESGGGLVQPGGSLRLNCAASGFTFSSYAMSWVRQAPGKGLEWVSAISGSGGSTYYADSVKGRFTISRDNSKNTLYLQMNSLRAEDTAVYYCARSYDKYWGSSIYSGLDYWGQGTLVTVSS VL: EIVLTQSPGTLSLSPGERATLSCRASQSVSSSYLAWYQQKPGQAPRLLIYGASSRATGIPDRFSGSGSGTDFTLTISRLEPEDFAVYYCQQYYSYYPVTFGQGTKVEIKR | pg/mL | 45700
FS20-22-49AA/FS30-10-12 (bispecific antibody, human IgG1, kappa, L234A L235A, V domains shown, M97 (Kabat) to T against FS30-10; also called FS30-10-12 in mAb^2 format) VH: EVQLLESGGGLVQPGGSLRLSCAASGFTFSSYDMSWVRQAPGKGLEWVSDIDPTGSKTDYADSVKGRFTISRDNSKNTLYLQMNSLRAEDTAVYYCARDLTVYGFDYWGQGTLVTVSS VL: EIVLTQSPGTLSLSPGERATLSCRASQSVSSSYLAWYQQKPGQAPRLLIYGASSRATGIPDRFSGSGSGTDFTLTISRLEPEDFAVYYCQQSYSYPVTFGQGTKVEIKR | pg/mL | 46900
